biological target: Estrogen receptor (Rattus norvegicus) (UniProt P06211+Q62986); assay: Estrogenic activity as percent gain in rat uterine weight at 10 mg/kg/day; format: functional, organism-based
Overview of recorded Gain for various molecules
Entry rule: numbers only, all in %.

> print(dat)
                                   molecule  readout.name  measured
1  CCCCCCCCNC(=O)C[C@@]1(C)C(C2CCc3cc(OC)ccc3C2)CC[C@@H]1OC(C)=O (stereo partly drawn)          Gain       441
2  CCCCCCCCCCCCNC(=O)C[C@@]1(C)C(C2CCc3cc(OC)ccc3C2)CC[C@@H]1OC(C)=O (stereo partly drawn)          Gain       412

Fill in Gain for record COc1cccc(NC(=O)C[C@@]2(C)C(C3CCc4cc(OC)ccc4C3)CC[C@@H]2OC(C)=O)c1 (stereo partly drawn) 428
